- TEST_DESCRIPTION: Inhibition of HIV1 gp160 by cell-cell fusion inhibition assay
- Parameters: species or system Human immunodeficiency virus 1
MEASUREMENT_NAME: IC50 (nM)
Numbers only here, please. The scale is nM.

Study these solved cases before continuing.
# COMPOUND, MEASUREMENT_NAME, RECORDED_NUMBER
measured = [
    ("CCc1nc2ccccc2n1C1C[C@H]2CC[C@@H](C1)N2CC[C@H](NC(=O)c1cc[n+]([O-])cc1)c1cccc(F)c1 (some centres undefined)", "IC50", 24),
    ("Cc1nc2ccncc2n1C1C[C@H]2CC[C@@H](C1)N2CC[C@H](NC(=O)c1ccc([S+](C)[O-])cc1)c1cccc(F)c1 (some centres undefined)", "IC50", 2),
    ("Cc1nc2cnccc2n1C1C[C@H]2CC[C@@H](C1)N2CC[C@H](NC(=O)C1CC[S+]([O-])CC1)c1cccc(F)c1 (some centres undefined)", "IC50", 4),
]

*Q* Please supply the value of reported IC50 for the item Cc1nc2cc(F)ccc2n1C1C[C@H]2CC[C@@H](C1)N2CC[C@H](NC(=O)c1ccc([S+](C)[O-])cc1)c1cccc(F)c1 (some centres undefined)
*A* 36
